Reported Cmax values are given for each entry in this list.
Experiment: Rodent pharmacokinetic study
Type: in vivo, Male Wistar rats
Details: male, Wistar, plasma; rat, oral (gavage), 3 mg/kg
Give a bare numeral; the unit ng/mL is implied.

A selection of reference data follows.
Assign Cmax to the following record: O=C(N[C@H]1CCCC[C@@H]1O)c1cc(Cc2ccc(F)cc2)c2c(n1)OCCO2
825

Quick one: give measured Cmax for Cn1ccc2c(Cc3ccc(Cl)nc3)cc(C(=O)N[C@H]3CCCC[C@@H]3O)nc21
887

Let me know recorded Cmax for Cn1ccc2c(Cc3ccnc(F)c3)cc(C(=O)N[C@H]3CCCC[C@@H]3O)nc21 , thanks.
373

Assign Cmax to the following record: CN1CCOc2c(Cc3ccc(F)cc3)cc(C(=O)N[C@@H]3CCOC[C@H]3O)nc21 (single isomer, unassigned; isomer-ii)
306

// fetch Cmax given entry CN1CCOc2c(Cc3ccc(F)cc3)cc(C(=O)N[C@H]3CCCC[C@@H]3O)nc21
69

Next:
Supply recorded Cmax for Cl.O=C(N[C@H]1CCCC[C@@H]1O)c1cc(Cc2ccc(F)cc2)c2c(n1)CNCC2 here.
97

Quick one: give measured Cmax for CN1CCc2c(Cc3ccnc(F)c3)cc(C(=O)N[C@H]3CCCC[C@@H]3O)nc21
1100

====

Target: muscarinic M1 receptor (Homo sapiens)
Sequence (P11229 1-460): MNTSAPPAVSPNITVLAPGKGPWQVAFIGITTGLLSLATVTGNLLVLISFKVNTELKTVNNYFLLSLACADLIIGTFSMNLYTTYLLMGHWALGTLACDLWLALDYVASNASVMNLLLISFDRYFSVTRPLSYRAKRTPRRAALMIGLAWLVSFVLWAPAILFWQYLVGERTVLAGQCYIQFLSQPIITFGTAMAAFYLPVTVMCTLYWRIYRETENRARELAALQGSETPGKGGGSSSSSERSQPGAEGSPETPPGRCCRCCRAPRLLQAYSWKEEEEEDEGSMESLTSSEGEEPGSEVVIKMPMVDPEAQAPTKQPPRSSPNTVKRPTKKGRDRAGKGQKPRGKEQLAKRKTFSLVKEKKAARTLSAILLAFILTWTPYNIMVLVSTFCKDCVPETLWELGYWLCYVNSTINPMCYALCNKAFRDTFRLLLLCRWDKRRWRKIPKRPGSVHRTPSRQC
Assay: Allosteric potency EC50 for muscarinic M1 receptor (CHO pCRE-Luc reporter assay)
Settings: in presence of EC20 of acetylcholine; CHO cells, luciferase reporter, 4 hours
REPORTED METRIC: EC50

Use these answered entries as a reference point.
// fetch EC50 given entry Cn1ccc2c(Cc3ccc(F)nc3)cc(C(=O)N[C@H]3CCCC[C@@H]3O)nc21 [Example 3]
977 nM

State its EC50: Cn1ccc2c(Cc3ccncc3)cc(C(=O)N[C@H]3CCCC[C@@H]3O)nc21 [Example 14]
891 nM

Note EC50 for the molecule shown: Cn1ccc2c(Cc3ccnc(F)c3)cc(C(=O)NC3CCOCC3O)nc21 (single isomer, unassigned) [Example 45]
3150 nM

Write down EC50 measured for item Cn1ccc2c(Cc3ccc(F)c(F)c3)cc(C(=O)N[C@H]3CCOC[C@H]3O)nc21 (single isomer, unassigned; isomer-ii) [Example 42]
2290 nM

Assign EC50 to the following record: Cn1ccc2c(Cc3ccc(F)cc3)cc(C(=O)N[C@H]3CCCC[C@@H]3O)nc21 [Example 4]
811 nM

Look up and report measured EC50 for this entry: O=C(N[C@H]1CCCC[C@@H]1O)c1cc(Cc2ccc(F)cc2)c2c(n1)OCCO2 [Example 103]
131 nM

Fill in EC50 for record Cc1ncccc1-c1ccc(Cc2cc(C(=O)N[C@H]3CCCC[C@@H]3O)nc3c2ccn3C)cc1 [Example 21]
1050 nM

Give the value of EC50 reported for the following: Cn1ccc2c(Cc3ccc(-c4cscn4)cc3)cc(C(=O)NC3CCOCC3O)nc21 (racemic) [Example 53]
31 nM

Specify reported EC50 for the molecule shown: COc1ccc(Cc2cc(C(=O)N[C@@H]3CCOC[C@H]3O)nc3c2ccn3C)cc1 (single isomer, unassigned; isomer-ii) [Example 61]
222 nM

Give EC50 for the following molecule: Cn1ccc2c(Cc3ccc(F)cc3)cc(C(=O)N[C@H]3CCOC[C@H]3O)nc21 (single isomer, unassigned; isomer-ii) [Example 37]
1250 nM

Let us examine a further case.
Tell me measured EC50 for Cn1ccc2c(Cc3ccc(F)cc3)cc(C(=O)N[C@@H]3CCOC[C@H]3O)nc21 (racemic) [Example 32] please.
486 nM

====

Target: muscarinic M1 receptor (Homo sapiens, UniProt P11229)
Assay: Allosteric potency EC50 for muscarinic M1 receptor (CHO pCRE-Luc reporter assay)
Settings: in presence of EC20 of acetylcholine; CHO cells, luciferase reporter, 4 hours
Where a name gives a salt, the structure may show the parent alone.
REPORTED METRIC: pEC50
Recall that pEC50 is obtained by taking minus log10 of the concentration measured in molar.

Consider the reported pEC50 for these molecules:
Fill: pEC50 (muscarinic M1 receptor (Homo sapiens, UniProt P11229)) for this molecule Cn1ccc2c(Cc3ccnc(F)c3)cc(C(=O)N[C@H]3CCCC[C@@H]3O)nc21 [Example 1]
5.83

Jot down pEC50 (muscarinic M1 receptor (Homo sapiens, UniProt P11229)) of Cn1ccc2c(Cc3ccc(F)c(F)c3)cc(C(=O)N[C@@H]3CCOC[C@H]3O)nc21 (single isomer, unassigned; isomer-i) [Example 51] .
5.74

Retrieve pEC50 on muscarinic M1 receptor (Homo sapiens, UniProt P11229); query Cn1cc(-c2ccc(Cc3cc(C(=O)N[C@H]4CCCC[C@@H]4O)nc4c3OCCO4)cc2)cn1 [Example 106]
7.85

State recorded pEC50 with muscarinic M1 receptor (Homo sapiens, UniProt P11229), entry Cn1ccc2c(Cc3ccc(-n4cccn4)cc3)cc(C(=O)N[C@H]3CCCC[C@@H]3O)nc21 [Example 6] , no comment.
7.82

Look up muscarinic M1 receptor (Homo sapiens, UniProt P11229) data: pEC50 of CN1CCOc2c(Cc3ccc(-c4cnn(C)c4)cc3)cc(C(=O)N[C@H]3CCCC[C@@H]3O)nc21 [Example 122] , then report it.
7.07

Next:
Fill: pEC50 (muscarinic M1 receptor (Homo sapiens, UniProt P11229)) for this molecule Cn1ccc2c(Cc3ccc(Cl)nc3)cc(C(=O)N[C@H]3CCOC[C@H]3O)nc21 (single isomer, unassigned; isomer-ii) [Example 50]
5.54

Please report the measured pEC50 for Cn1ccc2c(Cc3ccc(F)c(F)c3)cc(C(=O)N[C@H]3CCOC[C@H]3O)nc21 (single isomer, unassigned; isomer-i) [Example 41] tested on muscarinic M1 receptor (Homo sapiens, UniProt P11229).
5.91

Please look at Cn1ccc2c(Cc3ccc(F)cc3)cc(C(=O)N[C@H]3CCOC[C@H]3O)nc21 (single isomer, unassigned; isomer-i) [Example 36] and tell me its recorded pEC50 on muscarinic M1 receptor (Homo sapiens, UniProt P11229).
5.50

Provide pEC50, tested on muscarinic M1 receptor (Homo sapiens, UniProt P11229), for Cn1cc(-c2ccc(Cc3cc(C(=O)N[C@H]4CCCC[C@@H]4O)nc4c3CCNC4)cc2)cn1 [Example 90, Hydrochloride] .
7.74

Check muscarinic M1 receptor (Homo sapiens, UniProt P11229) data and give pEC50 for COc1ccc(Cc2cc(C(=O)N[C@H]3CCCC[C@@H]3O)nc3c2CCN3C)cc1 [Example 77] .
6.47

Given COc1ccc(Cc2cc(C(=O)N[C@H]3CCCC[C@@H]3O)nc3c2OCCN3C)cc1 [Example 127] , report its pEC50 on muscarinic M1 receptor (Homo sapiens, UniProt P11229).
6.02

Report value only: pEC50, muscarinic M1 receptor (Homo sapiens, UniProt P11229), Cn1ccc2c(Cc3ccnc(F)c3)cc(C(=O)N[C@@H]3CCOC[C@H]3O)nc21 (single isomer, unassigned; isomer-ii) [Example 40]
6.12

Tell me its pEC50 on muscarinic M1 receptor (Homo sapiens, UniProt P11229): Cn1ccc2c(Cc3ccc4ncsc4c3)cc(C(=O)N[C@H]3CCCC[C@@H]3O)nc21 [Example 12]
6.51

Give pEC50 for this entry on muscarinic M1 receptor (Homo sapiens, UniProt P11229): Cn1cc(-c2ccc(Cc3cc(C(=O)N[C@H]4CCCC[C@@H]4O)nc4c3ccn4C)cc2)cn1 [Example 7]
8.10

Name the recorded pEC50 of Cn1ccc2c(Cc3ccc(F)cc3)cc(C(=O)N[C@@H]3CCOC[C@@H]3O)nc21 (racemic) [Example 35] , assay system muscarinic M1 receptor (Homo sapiens, UniProt P11229).
5.83

Find pEC50 for O=C(N[C@H]1CCCC[C@@H]1O)c1cc(Cc2ccc(Cl)nc2)c2ccn(CCF)c2n1 [Example 23] on muscarinic M1 receptor (Homo sapiens, UniProt P11229) and write it down.
6.14

Give pEC50 for Cn1ccc2c(Cc3ccc(-c4cscn4)cc3)cc(C(=O)NCC3(O)CCCC3)nc21 [Example 26] tested on muscarinic M1 receptor (Homo sapiens, UniProt P11229).
6.66
